system: ACHN renal; assay: NCI-60 one-dose screen, 48 h; details: 10 µM unless noted
Compounds without any hit were thinned out: in the full panel of roughly 83,000, 20% have a hit. Calls of active or inactive are those of the source. How the source made its calls: active means growth percent below 10; inactive means the rest.
Reply using exactly one outcome from Yes = active, No = inactive

The examples below pair each entry with its known result.
compound: CN1C(=O)N(C)C2C1NN=c1s/c(=C\c3ccccn3)c(=O)n12 (configuration not stated)
class: No
--
compound: CC[C@@](C)(NC(=O)C(C)(C)NC(=O)[C@@H](NC(=O)[C@@H]1CCCN1C(=O)C(C)(C)NC(=O)[C@H](CC(C)C)NC(=O)CNC(=O)C(C)(C)NC(=O)[C@@H](NC(=O)C(C)(C)NC(=O)[C@H](CCC(N)=O)NC(=O)[C@H](C)NC(=O)C(C)(C)NC(=O)[C@H](C)NC(=O)C(C)(C)NC(=O)[C@H](C)NC(=O)C(C)(C)NC(C)=O)C(C)C)C(C)C)C(=O)N[C@@H](CCC(N)=O)C(=O)N[C@@H](CCC(N)=O)C(=O)N[C@H](CO)CC1CCCCC1
class: No
--
compound: COc1ccccc1/C=C/C=N/NC1=NC2C(S1)N(C)C(=O)N2c1ccccc1 (configuration not stated)
class: No
--
compound: Clc1ccccc1/C=C/c1nn2c(-c3ccncc3)nnc2s1
class: No

Task: # lookup: test call for O=C(CN1CCN(c2cc(=O)n(-c3ccccc3)c3ccccc23)CC1)Nc1ccc([N+](=O)[O-])cc1
Output: No

Task: # lookup: test call for COc1cc(-c2nc(SCc3ccc(C)cc3)[nH]c(=O)c2C#N)ccc1OCc1ccccc1
Output: No

Task: # lookup: test call for Oc1ccc(CSc2nnc(-c3ccc(Cl)cc3)o2)c2cccnc12
Output: No

====

tested on: SF-295 CNS; test: NCI-60 one-dose screen, 48 h (100 = growth as untreated, 0 = no growth, -100 = all killed); settings: 10 µM unless noted
The panel holds about 83,000 compounds, 20% with a hit somewhere; the sample as a whole holds those more often.
property.measured: growth (%)
Give bare numbers, in %.

Recorded growth, per entry:
compound: C#C[C@]1(O)CC[C@H]2[C@@H]3CC=C4c5sc(Nc6cc(Cl)ccn6)nc5CC[C@]4(C)[C@H]3CC[C@@]21C
growth [%]: -68.7

compound: CS(=O)c1nccc(-c2c(-c3ccc(F)c(OCCc4ccccc4)c3)nc3sccn23)n1 (stereo unspecified)
growth [%]: 101

compound: Cc1nn(-c2ccccc2)c2nc(CCl)[nH]c(=O)c12
growth [%]: 109

compound: Cn1nc(Nc2ccccc2)c(C(=O)NN)c1N
growth [%]: 103

compound: Cc1ccc(S(=O)(=O)N/N=C/c2cn(-c3ccc(F)cc3)nc2-c2ccc(S(C)(=O)=O)cc2)cc1
growth [%]: 103

Task: # growth lookup, item CCC(C)[C@H]1OC(=O)[C@H](C(C)C)N(C)C(=O)[C@@H](C(C)C)OC(=O)[C@H](C(C)C)N(C)C(=O)[C@@H](C(C)CC)OC(=O)[C@H](C(C)C)N(C)C1=O (stereo partly specified)
Output: 6.32

====

test system: TK-10 renal; experiment: NCI-60 one-dose screen, 48 h; conditions: 10 µM unless noted
About 83,000 compounds went through this panel and 20% of them were active in at least one assay; those are over-represented in the sample as a whole. Calls of active or inactive are those of the source. The calls were made as follows: active = growth percent below 10; inactive = the rest.
Reply using exactly one outcome from active, inactive

The examples below pair each entry with its known result.
compound: COc1ccc(NC(=O)[C@H](C)N)cc1C(=O)Nc1cccc(-c2cc(=O)c3c(OC)c(OC)c(OC)cc3o2)c1
class: inactive
--
compound: O=C(/C=C/c1cccc(O)c1)c1ccc(O)cc1
class: inactive
--
compound: CC(C)(C)n1nnnc1C(Nc1nccs1)c1cc2cccc3ccc4cccc1c4c32 (configuration not stated)
class: inactive
--
compound: COc1ccc(N)cc1C(=O)Nc1cccc(-c2cc(=O)c3c(OC)c(OC)c(OC)cc3o2)c1
class: inactive
--
compound: CNC(=O)c1cc(Oc2ccc3nc(NC(=O)c4cccc(C(F)(F)F)c4)sc3c2)ccn1
class: inactive
--
compound: Cc1occc1-c1nc2s/c(=C\c3cn(-c4ccccc4)nc3-c3ccccc3)c(=O)n2n1
class: inactive

Task: # lookup: test call for Cc1ccc(C2CC(c3ccc(Nc4nc(NCCO)nc(Nc5ccc(Cl)cc5)n4)cc3)=Nc3c(N)nc(N)nc3N2)cc1 (configuration not stated)
Output: active

====

test system: SW-620 colon; assay: NCI-60 one-dose screen, 48 h (100 = growth as untreated, 0 = no growth, -100 = all killed); settings: 10 µM unless noted
About 83,000 compounds went through this panel and 20% of them were active in at least one assay; those are over-represented in the sample as a whole.
Hi there, I'd appreciate the recorded growth for every entry that follows.
Answers are plain numbers, in %.

Recorded growth, per entry:
compound: CCN1C(=O)N(CC)C2SC(N/N=C/c3ccc(OC)cc3)=NC21 (stereo not given)
tested.target: SW-620 colon
growth [%]: 20.2

compound: NC(=O)c1c(NC(=O)c2cccc(OC(F)(F)F)c2)sc2c1CCC(=O)C2
tested.target: SW-620 colon
growth [%]: 18.3

compound: CCN(CC)CCN1C(=O)c2c(c3c4cc(Br)ccc4[nH]c3c3ccc4ccccc4c23)C1=O
tested.target: SW-620 colon
growth [%]: -61.6

I have 2 compounds here; please give me growth for each one.
1. COC(=O)c1nc(-c2ccc(C)cc2)oc1S(=O)(=O)N1CCN(c2oc(-c3ccccc3)nc2C#N)CC1
2. CC1(C)CC[C@]2(C(=O)N3CCCNCC3)CC[C@]3(C)C(=CC[C@@H]4[C@@]5(C)CCC(=O)C(C)(C)[C@@H]5CC[C@]43C)[C@H]2C1

Output:
99.5
101

I have 7 compounds here; please give me growth for each one.
1. CS(=O)c1nccc(-c2c(-c3ccc(F)c(OCc4ccccc4)c3)nc3sccn23)n1 (stereo not given)
2. Cc1nc(-c2cc3ccccc3c(N3CCN(C)CC3)n2)cs1
3. COc1ccc([C@@H]2[C@@H](O)C(=O)N2c2cc(OC)c(OC)c(OC)c2)cc1
4. O=C(NCCCNc1cc(-c2cn(-c3ccccc3)nc2-c2cccc(O)c2)ccn1)Nc1cccc(C(F)(F)F)c1
5. COc1ccc([C@H]2[C@H](O)C(=O)N2c2cc(OC)c(OC)c(OC)c2)cc1O
6. CCN(CC)Cc1c(-c2cccc(OC(F)(F)F)c2)[nH]c2ccc(N3CCCC3)cc2c1=O
7. CN1CCN(Cc2ccc(NC(=O)c3cncc(C#Cc4[nH]nc5ncncc45)c3)cc2C(F)(F)F)CC1

Output:
1: 87.9; 2: 98.6; 3: 19.4; 4: 12.4; 5: 17; 6: 92.3; 7: 31.6

I have 3 compounds here; please give me growth for each one.
1. COc1ccc(Cn2cc3c(c2-c2ccccc2)CCCc2cnoc2-3)cc1
2. Oc1ccc(CSc2nnc(-c3ccc(Br)cc3)o2)c2cccnc12
3. Clc1ccccc1/C=C/c1nn2c(-c3ccncc3)nnc2s1

Output:
1: 28.2; 2: 17.7; 3: 108

====

tested on: NCI/ADR-RES ovarian; assay: NCI-60 one-dose screen, 48 h (100 = growth as untreated, 0 = no growth, -100 = all killed); settings: 10 µM unless noted
This is part of a sample that, as a whole, favours compounds with a hit. Of some 83,000 tested, about 20% had one in any assay.
property.measured: growth (%)
Answers are plain numbers, in %.

compound.structure.string: O=C1c2c(c3c4cccnc4[nH]c3c3ccc4ccccc4c23)C(=O)N1CCN1CCNCC1
growth / %: 81.4
--
compound.structure.string: Cc1cc(-c2ccc3nc(N)sc3c2)nc2ccc3[nH]ncc3c12
growth / %: 13.6
--
compound.structure.string: O=C(/C=C/c1cccc(O)c1)c1ccc(O)cc1
growth / %: 71.4

Task: Return growth measured with NCI/ADR-RES ovarian given this molecule: CS(=O)(=O)c1ccc(-c2nn(-c3ccccc3)cc2/C=N/NC(=O)c2ccncc2)cc1
Output: 94.7

====

Hi there, I'd appreciate the recorded growth for every entry that follows.
system: TK-10 renal; test: NCI-60 one-dose screen, 48 h (100 = growth as untreated, 0 = no growth, -100 = all killed); settings: 10 µM unless noted
This is part of a sample that, as a whole, favours compounds with a hit. Of some 83,000 tested, about 20% had one in any assay.
Answers are plain numbers, in %.

Recorded growth, per entry:
compound: CCN1C(=O)N(CC)C2SC(N/N=C/c3cccs3)=NC21 (stereo not drawn)
tested.target: TK-10 renal
assay.value: 84.5

compound: CC1CCN(S(=O)(=O)c2ncsc2-c2ccccc2)CC1
tested.target: TK-10 renal
assay.value: 127

Switching to the query record.
Task: # growth lookup, item C#C[C@]1(O)CC[C@H]2[C@@H]3CC=C4c5sc(Nc6ccncc6)nc5CC[C@]4(C)[C@H]3CC[C@@]21C
Output: 12
